# Test system: Lacticaseibacillus casei
# methodDescription: Antifolate activity against Lactobacillus casei ATCC 7469 assessed as growth inhibition
# Type: functional, organism-based
Active and inactive are the calls of the source. No cut-off for these calls is given here.
Pick from active, inactive when you respond.

Prompt: Identify the outcome logged in this assay for the molecule shown: Nc1nc(=O)c2nc(COc3ccc(C(=O)N[C@@H](CCC(=O)O)C(=O)O)cc3)cnc2[nH]1
Completion: active

Prompt: Identify the outcome logged in this assay for the molecule shown: Nc1nc(=O)c2nc(CSc3ccc(C(=O)N[C@@H](CCC(=O)O)C(=O)O)cc3)cnc2[nH]1
Completion: active

Prompt: Identify the outcome logged in this assay for the molecule shown: Nc1nc2ncc(CCSc3ccc(C(=O)O)cc3)nc2c(=O)[nH]1
Completion: inactive

Prompt: Identify the outcome logged in this assay for the molecule shown: COC(=O)c1ccc(SCCc2cnc3nc(N)[nH]c(=O)c3n2)cc1
Completion: inactive
